Target: UniProt:Q8N884
Sequence (Q8N884 whole entry): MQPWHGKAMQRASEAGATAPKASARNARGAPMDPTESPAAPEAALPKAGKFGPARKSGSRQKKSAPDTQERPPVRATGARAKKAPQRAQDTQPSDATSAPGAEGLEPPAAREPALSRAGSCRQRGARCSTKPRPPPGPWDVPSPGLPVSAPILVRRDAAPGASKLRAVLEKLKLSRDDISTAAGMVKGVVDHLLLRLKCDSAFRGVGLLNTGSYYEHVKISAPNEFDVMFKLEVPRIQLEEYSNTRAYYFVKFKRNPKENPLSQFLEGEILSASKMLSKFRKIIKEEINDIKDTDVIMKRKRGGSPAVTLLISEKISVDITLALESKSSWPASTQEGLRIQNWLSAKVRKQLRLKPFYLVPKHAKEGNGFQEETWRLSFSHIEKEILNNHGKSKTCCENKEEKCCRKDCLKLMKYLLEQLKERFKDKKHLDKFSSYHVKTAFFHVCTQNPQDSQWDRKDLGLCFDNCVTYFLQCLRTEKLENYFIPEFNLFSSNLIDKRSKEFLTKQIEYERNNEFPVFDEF
Observed Property: pKd
When answering, recall that pKd equals minus log10 of the concentration in mol/L, and write that number alone.

Q) Return pKd measured with UniProt:Q8N884 given this molecule: COc1cc(O)c2c(=O)c(O)c(-c3ccc(O)cc3)oc2c1
A) 5.59

###

Target: STING (Homo sapiens, UniProt Q86WV6)
Sequence (Q86WV6 whole entry): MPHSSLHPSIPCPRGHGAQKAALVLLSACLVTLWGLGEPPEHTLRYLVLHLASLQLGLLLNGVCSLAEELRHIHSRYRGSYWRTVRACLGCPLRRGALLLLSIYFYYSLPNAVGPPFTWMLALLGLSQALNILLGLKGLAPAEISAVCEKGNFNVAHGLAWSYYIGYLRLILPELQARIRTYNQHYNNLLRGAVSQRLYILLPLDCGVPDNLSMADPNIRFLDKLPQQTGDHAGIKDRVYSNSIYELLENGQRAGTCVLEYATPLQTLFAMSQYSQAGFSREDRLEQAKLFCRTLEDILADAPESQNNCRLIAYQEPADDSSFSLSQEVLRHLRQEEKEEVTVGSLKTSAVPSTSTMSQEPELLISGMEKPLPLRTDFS
Observed Property: pKd
Answer as the number alone; pKd is minus log10 of concentration in mol/L.

Q) Report pKd for COc1cc(O)c2c(=O)c(O)c(-c3ccc(O)cc3)oc2c1 please.
A) 5.17
